Here, each record is paired with measured melting point data.

smi: O=C(Nc1ccc(CN2CCOCC2)cc1)c1n[nH]cc1Nc1ncnc2ccoc12
melting point: 271 to 273 °C
--
smi: O=C(Nc1ccc(CN2CCOCC2)cc1)c1n[nH]cc1Nc1ccnc2occc12
melting point: 269 to 271 °C
--
smi: CN1CCN(Cc2ccc(NC(=O)c3n[nH]cc3Nc3ccnc4ccoc34)cc2)CC1
melting point: 268 to 270 °C

* * *

Molecular target: CDK2/A (Homo sapiens, UniProt P24941)
Construct: purchased
Experiment: Inhibitory activity to CDK2 (FRET)
Assay type: biochemical
Conditions: 1 × 10^−6 mol/L
Description: CDK2/A was purchased in the form of a kit or obtained through purification. Procedures: CDK2/A is diluted to a suitable concentration with kinase diluent. The kinase reaction mixture contains CDK2/A, peptide substrate, HEPES (pH7.5), BRIJ-35, MgCl2 and EDTA. CDK2 phospho-peptide substrate is used as the control of 100% phosphorylation and ATP-free as the control of 0% phosphorylation. […] The inhibitions of the tested compounds are calculated according to the formula.

smi: Cc1c[nH]c2ncnc(Nc3c[nH]nc3C(=O)Nc3ccc(CN4CCOCC4)cc3)c12
CDK2 inhibition % (1 × 10^−6 mol/L) / %: 50.49
//
smi: Cc1csc2c(Nc3c[nH]nc3C(=O)Nc3ccc(CN4CCOCC4)cc3)nccc12
CDK2 inhibition % (1 × 10^−6 mol/L) / %: 38.28
//
smi: Cc1cc2c(Nc3c[nH]nc3C(=O)Nc3ccc(CN4CCOCC4)cc3)nccc2o1
CDK2 inhibition % (1 × 10^−6 mol/L) / %: 64.51
